Data provenance is the supplement of paper PMC6555819.

Test system: PXR:RXRa (NR concentration 270 nM, RXRa partner concentration 90 nM)
Experiment: PBM binding z-score (relative to random genomic background probes); higher = stronger binding; sequences stand for … in GC…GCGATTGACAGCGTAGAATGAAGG
Think of 0.7 as a floor: if PBM binding z-score stands on it or above, it is MET; beneath it, NOT MET.

INPUT: Does the sequence CCGACTGGGGCATGAGGTTACCATAAGCCAGCCC have recorded PBM binding z-score that is 0.7 or more?
OUTPUT: NOT MET

INPUT: Then this sequence: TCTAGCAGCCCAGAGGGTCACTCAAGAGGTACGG
OUTPUT: MET

INPUT: Then this sequence: TCAAGTAGGTTACCAATGGGGCATTCAGCTTTCT
OUTPUT: NOT MET

INPUT: Then this sequence: CCAAACAGGTGAAAGGTAACTCAGTCTGGTACGC
OUTPUT: MET

INPUT: Then this sequence: GGAAGGAGGGCAAAGTTGATAGCATCTGTCGACG
OUTPUT: MET

INPUT: Then this sequence: CTACCAAGGTGAACCAGGTCGTTGATTACTATTC
OUTPUT: MET

INPUT: Then this sequence: CCAGACAGGTGAGAAGGTAACCCAGCCTCGATTA
OUTPUT: NOT MET

INPUT: Then this sequence: GGAACGAGGCCATTCGAGTTGATAGCATGGCGAT
OUTPUT: MET

INPUT: Then this sequence: CCTACTGGGCCAAAGGTCACTGATTCCAATGCTC
OUTPUT: MET

INPUT: Then this sequence: CGTCAAAGTTCAACCAAGGTAACGTAAAGCACGC
OUTPUT: MET

INPUT: Then this sequence: CCTGCTAGGTCAATGGTCAGCTGAAGCAGCTCGC
OUTPUT: MET

INPUT: Then this sequence: TCATATAGGTAAAAGATGAAAGTCGGTGTGGTAA
OUTPUT: NOT MET

INPUT: Then this sequence: TCTATTAGTTGATTAGGGCAAACGAAACAGCGGA
OUTPUT: NOT MET

INPUT: Then this sequence: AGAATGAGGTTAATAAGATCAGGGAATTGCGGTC
OUTPUT: MET

INPUT: Then this sequence: TCTTGTAGATCAAGCAGGTTAAGCAAGCCTGAGT
OUTPUT: NOT MET

INPUT: Then this sequence: ATCTCTAGGTAAAGTCCAGTGAAAGATCGATAGA
OUTPUT: NOT MET

INPUT: Then this sequence: CGAACTAGGTCATCCAGGACAGTGAATACATTGA
OUTPUT: MET

INPUT: Then this sequence: CCTAGGTGGTCAGGAGGTCACACACCGGATATGA
OUTPUT: MET

INPUT: Then this sequence: CGATCGAGGGCATGAGTTGATAGCAAATGCCGAT
OUTPUT: NOT MET

INPUT: Then this sequence: AGAACGAGGGCGATGAGTTGATAGCACGGGTGGC
OUTPUT: NOT MET

INPUT: Then this sequence: TCTAGTTCGTCAAAGGTCACACACTCGAAATGCG
OUTPUT: MET

INPUT: Then this sequence: GCTTACGGGTCAAAGCTTATAGCATGAATAGAAT
OUTPUT: MET

INPUT: Then this sequence: ACAGACAGGTGATGAAGGTAACTGAGGCTATCAT
OUTPUT: NOT MET

INPUT: Then this sequence: CGTCAAAGTTCAAGGTATCGTAACAGAAAGCAGC
OUTPUT: MET

INPUT: Then this sequence: CCTTACGGGTCACGAGGTTATAGGACGACGAGCG
OUTPUT: MET

INPUT: Then this sequence: GCGACTGGGGCATCAGCAGGTTAACATAACTTAA
OUTPUT: NOT MET

INPUT: Then this sequence: TCTATTAGTTGGTTAGGGCAACCGAAACAGCGGA
OUTPUT: NOT MET

INPUT: Then this sequence: TCGAGTAGGTTGCCAATGGGGCATTCAGCTTTCT
OUTPUT: NOT MET

INPUT: Then this sequence: TCATGTAGGTAAATGCTAGGTGAAAGTCCGATCT
OUTPUT: NOT MET

INPUT: Then this sequence: ATATGTAGGTTATCGCGTCATTCAGTTTGCGCAT
OUTPUT: NOT MET

INPUT: Then this sequence: TGTCAAAGTTCAAAGGTATCGTAAGTATCCACAC
OUTPUT: MET

INPUT: Then this sequence: GTAACGAGGGCATTCGAGTTGATAGCATGGCGAT
OUTPUT: MET

INPUT: Then this sequence: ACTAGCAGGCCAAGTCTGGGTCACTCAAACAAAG
OUTPUT: NOT MET

INPUT: Then this sequence: TCTTGTAGATCTAAGGTTAAGAAAGCCGAAGCCT
OUTPUT: MET

INPUT: Then this sequence: AGAACGAGGGCACCCTGAGTTGATAGCAGAGTAG
OUTPUT: MET

INPUT: Then this sequence: GCGACTGGGGCAAAGCAGGTTACGATAAGGTTGG
OUTPUT: NOT MET

INPUT: Then this sequence: ATACCAAGGTGATCGAGAGGTCGTTGATACTAAC
OUTPUT: MET

INPUT: Then this sequence: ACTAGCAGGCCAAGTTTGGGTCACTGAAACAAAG
OUTPUT: NOT MET

INPUT: Then this sequence: TGAATGAGGTTAAACATCAGGGAACGTGGCGTCG
OUTPUT: MET

INPUT: Then this sequence: CGTCCAAGGTCAACGGTCAGTGAAGAGATGACGG
OUTPUT: MET

INPUT: Then this sequence: CAAACTAGGTCAAAGGTCATAGTCGAGCCAACCA
OUTPUT: MET

INPUT: Then this sequence: TCTATTAGTTCATTAGGGCAACCGAAACAGCGGA
OUTPUT: MET

INPUT: Then this sequence: ATATCTAGGTAAGACTCAGTTCAGTGAAGAACGC
OUTPUT: MET

INPUT: Then this sequence: TGATATAGGTAATACAGGTGAAAGTCGGCATCTA
OUTPUT: NOT MET

* * *

Would you kindly list PBM binding z-score for each of these sequences?
System: PPARg:RXRa IVT, anti-PPARg (NR concentration 270 nM, RXRa partner concentration 90 nM)
Test: PBM binding z-score (relative to random genomic background probes); higher = stronger binding; sequences stand for … in GC…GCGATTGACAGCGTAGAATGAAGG

INPUT: # get_value(readout='PBM binding z-score', item= CCTTACGGGTGACTGACAGGTTATAGCATTTGGA )
OUTPUT: 1.09

INPUT: Then this sequence: CGGCCAAGGTCAGCAGGTCAGTGAAAGCGACGTG
OUTPUT: 3.74

INPUT: Then this sequence: AGGCAAAGTTCATCTAGGTAACGTAAGATATGCT
OUTPUT: 3.73

INPUT: Then this sequence: CGAACTAGGTCATTGACAGGACACTGAATAGTAA
OUTPUT: 7.96

INPUT: Then this sequence: CCTACTGGGCCATTCAGGGGTCATTGATCATATG
OUTPUT: 4.44

* * *

Would you kindly list PBM binding z-score for each of these sequences?
Test system: PPARa:RXRa (NR concentration 270 nM, RXRa partner concentration 90 nM)
Test: PBM binding z-score (relative to random genomic background probes); higher = stronger binding; sequences stand for … in GC…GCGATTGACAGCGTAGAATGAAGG
Could you keep your reply to the number by itself?

INPUT: # get_value(readout='PBM binding z-score', item= ATCGAAAGGTCGAAGGTGAGTATGCCCACCCGAA )
OUTPUT: 4.64

INPUT: Then this sequence: TCATATAGGTAAACAGGTCAAAGTCCGTAAGTTA
OUTPUT: 4.55

INPUT: Then this sequence: CGAACGAGGACATGAGTTGATAGCAAATGCCGAT
OUTPUT: -0.417

INPUT: Then this sequence: CCAGACAGGTGAGAAGGTAATTCAGCCTCGATTA
OUTPUT: 0.475

INPUT: Then this sequence: ACTATTAGTTGATACGAGGGCAACCGATAGGTTG
OUTPUT: 0.327

INPUT: Then this sequence: TAGCCTTGGTCATTGGGCCAGTATAGTACGCATC
OUTPUT: -0.217

INPUT: Then this sequence: ATCGAAAGGCCGACGAGGTGAGTATACACCGTTT
OUTPUT: -0.0782

INPUT: Then this sequence: TCATATATGTAAATGCTAGGTGAAAGTCCGATCT
OUTPUT: 0.627

INPUT: Then this sequence: ATACCAACGTGATCGTGAGGTCGTTGATACTAAC
OUTPUT: 0.65

INPUT: Then this sequence: TCTCGTTGGTCAAAGGTCACACACTCGAAATGCG
OUTPUT: 6.57

INPUT: Then this sequence: CCGAATGGGGCAAAGGTTACCATACTCAGTACGA
OUTPUT: 4.58

INPUT: Then this sequence: TCATACAGGTGAAGGTAACTCAGGTACGCAGTCG
OUTPUT: 1.68

INPUT: Then this sequence: TGTCAAAGTTCAAAGGTAACATAAGTATCCACAC
OUTPUT: 6.03

INPUT: Then this sequence: CGTGCAAGGTCAAAGGTCAGTGAAGAGATGACGG
OUTPUT: 7.4

INPUT: Then this sequence: ATCGAAAGATCGAGGTGAGTATAGAGAAAGGGAA
OUTPUT: 0.469

INPUT: Then this sequence: CGTCAAAGTTCAACAAAGGTAACGTAAAGCACGC
OUTPUT: 4.83

INPUT: Then this sequence: CCTTACGGGTCACTCCAGGTTATAGCCTCGGAGT
OUTPUT: 4.56

INPUT: Then this sequence: CCGACTGGGGCATAAAGGTTACCATACCATCCGG
OUTPUT: 2.47

INPUT: Then this sequence: TCTTGTAGATCAAGCAGGTGAAGAAAGCCTGAGT
OUTPUT: 0.527

INPUT: Then this sequence: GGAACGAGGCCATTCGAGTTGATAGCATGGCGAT
OUTPUT: 0.013

INPUT: Then this sequence: TCGAGTAGGTTAGTCGGGGCATTCACCCAACATA
OUTPUT: 0.713

INPUT: Then this sequence: TCGAGTAGGTTAGGGTCATTCAGAATGGCGTCGA
OUTPUT: 4.66

INPUT: Then this sequence: AGAACGAGGACAATGAGTTGATAGCACGGGTGGC
OUTPUT: -0.365

INPUT: Then this sequence: TCTGCTAGGTAAGTTGGTCAGCTAACGAGCTGCC
OUTPUT: -0.166

INPUT: Then this sequence: CCTTACGGGTCACTCCAGATTATAGCATCGGAGT
OUTPUT: 4.41

INPUT: Then this sequence: CGTCCAAGGTCAAGGTCATTGAAAGAGACTCGAA
OUTPUT: 6.18

INPUT: Then this sequence: CCTAGCAGGCCAGGGTCCCTCAAGCATTTCGCTT
OUTPUT: -0.381

INPUT: Then this sequence: TCTTGTAGATCAAAGGCTAAGAAAGCCGAAGCCT
OUTPUT: 1.68

INPUT: Then this sequence: TCTTGTAGAGCAAGCAGGTTAAGAAAGCCTGAGT
OUTPUT: 0.415

INPUT: Then this sequence: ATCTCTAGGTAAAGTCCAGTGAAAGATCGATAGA
OUTPUT: 0.175

INPUT: Then this sequence: CCGAGAAGGTTATGGGGCATTCAGGCAACGGTGA
OUTPUT: 2.89

INPUT: Then this sequence: CGAACTAGGTCAGAACAGGACAGTGATGGATGAT
OUTPUT: 2.91

INPUT: Then this sequence: TCTAGTTGGTCACGGAGGTCACACAAGACGGGTA
OUTPUT: 3.99

INPUT: Then this sequence: AGAATGAGGTTACCAAAGATTAGGGAAACGCTTG
OUTPUT: 3.31
